Test system: OVCAR-3
Method: NCI tumour cell line growth inhibition, 48 h
Active and inactive are the calls of the source. Cut-off read from the data, not from the text of the source: active = GI50 up to about 1.1 µM and inactive = higher.
Measurement type: GI50

Here is how some molecules turned out for GI50.
Molecule	GI50
C1COCCOP2(N3CC3)=NP(N3CC3)(=NP(N3CC3)(N3CC3)=N2)OCCOCCO1 (stereo unspecified)	> 100 µM (inactive)
O=C1c2ccccc2C(=O)c2c(NCCNCCO)ccc(O)c21	6.46 µM (inactive)
O=C1OS2(OCc3cccc4cccc2c34)c2ccccc21 (stereo unspecified)	> 100 µM (inactive)
CC1(C)C(/C=N\O)=[N+]([O-])C(C)(C)N1O	49.7 µM (inactive)
Cn1c2cc(O)cc(O)c2c(=O)c2c([N+](=O)[O-])cccc21	> 100 µM (inactive)
Cc1cc(S(=O)(=O)Nc2nc(N)n(-c3ccccn3)n2)c(S)cc1Cl	> 100 µM (inactive)
COc1cccc(C2c3cc4c(cc3OC(N3CCOCC3)C2C)OCO4)c1O (stereo unspecified)	3.64 µM (inactive)
CCOc1ccc(-n2nnc3c(N)nc(N)nc32)cc1	> 100 µM (inactive)
CC(=O)OC[C@@H](OC(C)=O)[C@H](OC(C)=O)[C@@H]1OC(C)(C)O[C@@H]1C1SCCCS1	> 100 µM (inactive)
O=C(O)c1ccc(CNCc2ccccc2)cc1	> 100 µM (inactive)

Attention now turns to another entry.
Qu. Lookup: GI50 / OVCAR-3 / COC(=O)C[S+]([O-])c1ccccc1 (stereo unspecified)
Ans. 31.3 µM (inactive)

* * *

Tested on: COLO 205
Method: NCI tumour cell line growth inhibition, 48 h
The source made the active and inactive calls. Rule as the data show it: active = GI50 up to about 1.1 µM and inactive = higher.
Measurement type: GI50

Here is how some compounds turned out for GI50.
Compound	GI50
CCOC(=O)/C=C1/Nc2cc(F)c(F)cc2NC1=O	> 100 µM (inactive)
CCOC(=O)c1c(SCCO)n(-c2ccccc2)c(=S)n(-c2ccccc2)c1=O	> 100 µM (inactive)
Cc1cc(S(=O)(=O)Nc2nc(N)n(-c3ccccn3)n2)c(S)cc1Cl	> 100 µM (inactive)

Qu. Which value of GI50 has been reported for CNC(=S)/N=c1/sc(NC)nc2sc3c(c12)CCCC3 in the records?
Ans. > 100 µM (inactive)

Qu. Which value of GI50 has been reported for Nc1nc(N)c2ncn(CC3CCC(CO)C3)c2n1 (stereo unspecified) in the records?
Ans. > 100 µM (inactive)

Qu. Which value of GI50 has been reported for O=c1c2nc(-c3ccccc3)oc2n(-c2ccccc2)c(=O)n1-c1ccccc1 in the records?
Ans. > 46.5 µM (inactive)

Qu. Which value of GI50 has been reported for C[N+](C)(C)CC1CCCCC1O (stereo unspecified) in the records?
Ans. > 100 µM (inactive)

Qu. Which value of GI50 has been reported for COC(=O)c1nc(C(=O)OC)c2c([nH]c3ccccc32)c1C(=O)OC in the records?
Ans. > 100 µM (inactive)

Qu. Which value of GI50 has been reported for O=C(Nc1c(Cl)cc([N+](=O)[O-])cc1Cl)/C(=N\Nc1cccc(Cl)c1)c1c(O)c2ccccc2oc1=O in the records?
Ans. > 100 µM (inactive)

Qu. Which value of GI50 has been reported for CC(=O)Nc1ccc(-c2nc3ccccc3s2)cc1O in the records?
Ans. 33.8 µM (inactive)

Qu. Which value of GI50 has been reported for O=C(CC1(O)C(=O)Nc2c(Cl)ccc(Cl)c21)c1ccc(Cl)cc1Cl (stereo unspecified) in the records?
Ans. 17.6 µM (inactive)

* * *

System: COLO 205
Method: NCI tumour cell line growth inhibition, 48 h
Active and inactive are the calls of the source. No stated cut-off is given here; in the data, active = GI50 up to about 1.1 µM and inactive = higher.
Measurement type: GI50

Compound	GI50
N#CC(C#N)/N=C/c1ccncc1	> 100 µM (inactive)
CCS/C(=N\c1ccccc1)SC	> 100 µM (inactive)
C=C(C)[C@H]1CC23C(=O)C(C(=O)C(C)C)=C(O)[C@](C)(C[C@H]2C1(C)C)C3=O	11.1 µM (inactive)

Attention now turns to another entry.
Qu. Which value of GI50 has been reported for Cn1c2cc(O)cc(O)c2c(=O)c2c([N+](=O)[O-])cccc21 in the records?
Ans. > 100 µM (inactive)

* * *

Test system: IGROV-1
Method: NCI tumour cell line growth inhibition, 48 h
Active and inactive are the calls of the source. Rule as the data show it: active = GI50 up to about 1.1 µM and inactive = higher.
Measurement type: GI50

Here is how some compounds turned out for GI50.
Compound	GI50
CCNCC(O)COc1ccc2c(c1)[n+]([O-])nc(N)[n+]2[O-] (stereo not given)	36.3 µM (inactive)
Nc1sccc1S(=O)(=O)c1ccsc1N	> 100 µM (inactive)
COc1cc2c(cc1OCc1ccccc1)NC(=O)[C@@H]1C[C@@H](O)CN1C2=O	> 100 µM (inactive)

Qu. Which value of GI50 has been reported for COc1cc(C(=O)O)c(-c2cc3c(cc2C=O)OCO3)c(OC)c1OC in the records?
Ans. > 10 µM (inactive)

Qu. Which value of GI50 has been reported for CC(C)CC[C@H](O)[C@@H](C)[C@H]1[C@@H](OC2OC(C)C(O)C(O)C2O)C[C@H]2[C@@H]3CC=C4C[C@@H](O)CC[C@]4(C)[C@H]3[C@@H](O)C[C@]12C (stereo not given in full) in the records?
Ans. 4.42 µM (inactive)

* * *

Items are presented alongside their recorded GI50.
Test system: SNB-78
Method: NCI tumour cell line growth inhibition, 48 h
Calls of active or inactive are those of the source. No stated cut-off is given here; in the data, active = GI50 up to about 1.1 µM and inactive = higher.

Compound	GI50
COC(=O)c1nc(C(=O)OC)c2c([nH]c3ccccc32)c1C(=O)OC	> 100 µM (inactive)
CS(=O)(=O)c1c(N)c2nc(Cl)cn2c2nc3ccccc3nc12	> 100 µM (inactive)
O=C1C2C(C(=O)N1Cc1ccccc1)N(Cc1ccccc1)C(=O)N2Cc1ccccc1 (stereo not given)	> 100 µM (inactive)
CCCCCC(/C=C/[C@@H]1[C@H]2CC(=O)O[C@H]2C[C@H]1N1CCOCC1)OC1CCCO1 (stereo not given in full)	> 100 µM (inactive)
O=Nc1ccc(O)c2ncccc12	2.43 µM (inactive)

Qu. Which value of GI50 has been reported for CCOc1ccc(N(CC(=O)N2CC(=O)Nc3cc(C)c(C)cc32)C(C)=O)cc1 in the records?
Ans. > 100 µM (inactive)

Qu. Which value of GI50 has been reported for BrC(/C=N/Nc1nnc(-c2ccccc2)c(-c2ccccc2)n1)C(Br)c1ccccc1 (stereo not given) in the records?
Ans. 17.7 µM (inactive)

Qu. Which value of GI50 has been reported for C#CCNC(=O)CCC(N)C(=O)O (stereo not given) in the records?
Ans. > 100 µM (inactive)

Qu. Which value of GI50 has been reported for CC(=O)OCCOCNC(=S)N/N=C(\C)c1ccco1 in the records?
Ans. > 100 µM (inactive)

Qu. Which value of GI50 has been reported for COC1=CC(C2c3cc4c(cc3[C@@H](Nc3ccc([N+](=O)[O-])cc3)C3COC(=O)[C@H]23)OCO4)=CC(=O)C1=O (stereo not given in full) in the records?
Ans. 28 µM (inactive)

* * *

Test system: A549
Method: NCI tumour cell line growth inhibition, 48 h
The source made the active and inactive calls. Rule as the data show it: active = GI50 up to about 1.1 µM and inactive = higher.
Lab note: assign the record to one of active, inactive

For orientation, consider the following solved cases.
Molecule	Tested target	Assigned label
O=c1oc(-c2ccccc2)c(-c2ccccc2)n1-c1ccc(Br)cc1	A549	inactive
O=C1C=C(O)c2nc(O)ccc2C1=O	A549	inactive
O=C1C2=C(c3ccccc31)C(c1ccc(Cl)cc1)N1C(=O)CCSC1=N2 (stereo unspecified)	A549	inactive
Nc1nc(Cl)c(N)c(NCC2(CO)CC(Cc3ccccc3)C2)n1 (stereo unspecified)	A549	inactive
O=C(O)c1nn[nH]c1S	A549	inactive
COC1=CC(C2c3cc4c(cc3[C@@H](Nc3ccc([N+](=O)[O-])cc3)C3COC(=O)[C@H]23)OCO4)=CC(=O)C1=O (stereo partly specified)	A549	active
C/C(=N\Nc1nc2ccccc2o1)c1ccncn1	A549	active
C=CCC(OCCOCC)c1cc(OCCOCC)ccc1OC (stereo unspecified)	A549	inactive
C#C[C@]1(O)CC[C@H]2[C@@H]3CCC4=C/C(=N/CCOC(=O)c5cccc6c(=O)c7ccccc7[nH]c56)CC[C@@H]4[C@H]3CC[C@@]21C	A549	inactive
CS(=O)(=O)c1c(N)c2nc(Cl)cn2c2nc3ccccc3nc12	A549	inactive

Qu. Assay result, entry CC(C)CCC[C@@H](C)C1CCC2[C@@H]3CCC4C[C@@H](NS(C)(=O)=O)CC[C@]4(C)C3CC[C@@]21C (stereo partly specified) — outcome?
Ans. inactive

Qu. Assay result, entry CC[N+]1(C)CCC(O)(c2ccccc2)C(C(=O)c2ccccc2)C1 (stereo unspecified) — outcome?
Ans. inactive

Qu. Assay result, entry COc1cc(Cc2cnc(N)nc2N)cc(OC)c1OCCCNc1ccc([N+](=O)[O-])cc1 — outcome?
Ans. inactive

Qu. Assay result, entry C[N+](C)(C)CC1CCCCCCCCCCC1=O (stereo unspecified) — outcome?
Ans. inactive

Qu. Assay result, entry CC(C)CS(=O)(=O)/C(=C(\c1ccc(Br)cc1)S(=O)(=O)CC(C)C)c1ccc(Br)cc1 — outcome?
Ans. inactive

Qu. Assay result, entry C=CC(OC(=O)C(C)C)c1ccc(OC(=O)C(C)C)cc1 (stereo unspecified) — outcome?
Ans. inactive

Hello, the source for this data is ChEMBL document CHEMBL1201862, in case you need it.
